assay: MB-102 pig plasma concentration after intramuscular dosing; format: in vivo; conditions: Yorkshire, plasma, intramuscular, 3.2 mg/kg; pig 09801, IM, 3.2 mpk, 300 min; read-out: MB-102 Pig Plasma Conc.
quantity-name: concentration at 300 min (ng/mL)

• Nc1nc(C(=O)N[C@H](CO)C(=O)O)c(N)nc1C(=O)N[C@H](CO)C(=O)O = 333

---

experiment: MB-102 pig plasma concentration after subcutaneous dosing; type: in vivo; conditions: Yorkshire, pig, plasma, subcutaneous, 3.2 mg/kg, pig 52771, SubQ, 3.2 mpk, 90 min; read-out: MB-102 Pig Plasma Conc.
quantity-name: concentration at 90 min (ng/mL)

* Nc1nc(C(=O)N[C@H](CO)C(=O)O)c(N)nc1C(=O)N[C@H](CO)C(=O)O | 6920
